assay: UNBS5162 mouse pharmacokinetics; format: in vivo; conditions: B6D2F1, mouse, plasma, iv; female mice; i.v. 20 mg/kg single
READOUT_KIND: Vd
Answer format: number, then unit.

(Q) Please look at this compound and report its Vd: CN(C)CCN1C(=O)c2cccc3cc(NC(N)=O)cc(c23)C1=O [UNBS5162]
(A) 18.9 L/kg

====

test system: nine human cancer cell lines; assay: MTT colorimetric assay, mean of nine cell lines; format: cell-based; conditions: mean over nine human cancer cell lines, read-out: mean antiproliferative activity IC50
READOUT_KIND: IC50 (µM)
Answers are plain numbers, in µM.

CN(C)CCN1C(=O)c2cccc3cc(NC(N)=O)cc(c23)C1=O :: 17.9

We next turn to a different compound, shown below.
(Q) Provide measured IC50 value, entry: "CN(C)CCN1C(=O)c2cccc3cc(NC(=O)NC(=O)C(Cl)(Cl)Cl)cc(c23)C1=O"
(A) 19.8
